tested on: rabbits; assay: Primary skin irritation test on animals (Draize P.I.I.); conditions: depilated back, 0.5 ml of 1% solution in 1,3-butylene glycol:ethanol 7:3, observed 24 or 72 hours later
parameter: P.I.I. (Primary Irritation Index)

{"columns": ["compound", "P.I.I. (Primary Irritation Index)"],
 "data": [
  ["O=C(Cc1ccc(NC(=O)C23CC4CC(CC(C4)C2)C3)cc1)NO [Example 32]", 0.375],
  ["Cc1ccc(C(=O)N(C)c2ccc(C(=O)NO)cc2)cc1C [Example 20]", 0.421],
  ["Cc1ccc(C(=O)Nc2ccc(CC(=O)NO)cc2)cc1 [Example 24]", 0.321],
  ["CCCCc1ccc(N(C)C(=O)c2ccc(C(=O)NO)cc2)cc1 [Example 51]", 0.331],
  ["CCCc1ccc(C(=O)Nc2ccc(C(=O)NO)cc2)cc1 [Example 5]", 0.375]
]}

Dear reader, for each entry below, please note its P.I.I. (Primary Irritation Index).
1. Cc1ccc(NC(=O)c2ccc(C(=O)NO)cc2)cc1C [Example 42]
2. CN(O)C(=O)c1ccc(C(=O)N(C)C23CC4CC(CC(C4)C2)C3)cc1 [Example 55]
3. CN(C(=O)c1ccc(C(=O)NO)cc1)c1ccc(C(C)(C)C)cc1 [Example 52]
4. Cc1ccc(NC(=O)c2ccc(C(=O)NO)cc2)cc1 [Example 35]

Return:
1: 0.987; 2: 0.245; 3: 0.412; 4: 0.245
